study system: Human platelet cyclic AMP phosphodiesterase (PDE-3) (Homo sapiens, UniProt Q14432)
Sequence (Q14432 whole entry): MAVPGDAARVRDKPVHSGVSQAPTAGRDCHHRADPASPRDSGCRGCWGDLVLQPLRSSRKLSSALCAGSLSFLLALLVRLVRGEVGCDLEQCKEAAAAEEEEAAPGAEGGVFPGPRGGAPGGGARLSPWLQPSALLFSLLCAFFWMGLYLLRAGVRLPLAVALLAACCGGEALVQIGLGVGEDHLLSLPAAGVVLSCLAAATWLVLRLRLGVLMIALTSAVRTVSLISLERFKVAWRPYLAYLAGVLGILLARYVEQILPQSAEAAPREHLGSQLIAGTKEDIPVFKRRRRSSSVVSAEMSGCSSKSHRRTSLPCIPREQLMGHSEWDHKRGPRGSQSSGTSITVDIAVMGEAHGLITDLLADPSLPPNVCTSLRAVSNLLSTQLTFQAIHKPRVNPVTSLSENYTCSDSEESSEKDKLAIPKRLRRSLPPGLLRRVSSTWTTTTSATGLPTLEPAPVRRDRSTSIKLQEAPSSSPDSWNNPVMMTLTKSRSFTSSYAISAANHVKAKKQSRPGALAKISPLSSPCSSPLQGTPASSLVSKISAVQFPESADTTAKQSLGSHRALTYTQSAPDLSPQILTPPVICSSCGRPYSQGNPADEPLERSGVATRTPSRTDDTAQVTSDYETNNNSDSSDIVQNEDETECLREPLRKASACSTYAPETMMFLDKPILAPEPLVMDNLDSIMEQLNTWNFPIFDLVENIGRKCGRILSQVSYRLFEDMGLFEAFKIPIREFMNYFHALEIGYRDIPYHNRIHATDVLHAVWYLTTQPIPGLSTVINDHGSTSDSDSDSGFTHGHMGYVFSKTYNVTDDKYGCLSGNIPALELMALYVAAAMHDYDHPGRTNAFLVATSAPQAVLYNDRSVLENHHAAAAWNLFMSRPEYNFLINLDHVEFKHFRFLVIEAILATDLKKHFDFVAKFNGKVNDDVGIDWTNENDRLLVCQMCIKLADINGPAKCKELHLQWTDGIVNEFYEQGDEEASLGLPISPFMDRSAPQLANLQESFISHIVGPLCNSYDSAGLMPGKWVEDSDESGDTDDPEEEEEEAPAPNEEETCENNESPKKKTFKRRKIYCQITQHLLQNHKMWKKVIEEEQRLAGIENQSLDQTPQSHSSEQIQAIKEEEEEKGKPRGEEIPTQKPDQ
recorded metric: IC50

CCOC(=O)C1=C(COCCNC(=O)CCCOc2ccc3[nH]c(=O)ccc3c2)NC(C)=C(C(=O)OC)C1c1ccccc1Cl (stereo not shown)    300 nM
CCOC(=O)C1=C(COCCNC(=O)COc2ccc3[nH]c(=O)ccc3c2)NC(C)=C(C(=O)OC)C1c1ccccc1Cl (stereo not shown)    100 nM
COC(=O)C1=C(C)NC(COCCNC(=O)COc2ccc(C3=NNC(=O)CC3)cc2Cl)=C(C(=O)OC)C1c1ccccc1Cl (stereo not shown)    80 nM
COC(=O)C1=C(C)NC(COCCNC(=O)CCCOc2ccc3[nH]c(=O)ccc3c2)=C(C(=O)OC)C1c1ccccc1Cl (stereo not shown)    270 nM
